Sourced from patent US20150266857A1

- Target of assay: human glioblastoma A172 cells, naturally expressing hTDO2 (Homo sapiens, UniProt P48775)
- Construct: human glioblastoma A172 cells, naturally expressing hTDO2; endogenous in cells; host or cells: human glioblastoma A172 cells (ATCC CRL-1620)
- Assay details: Cellular assay for TDO2 activity, A172 cells
- Assay type: cell-based
- Condition details: overnight incubation, kynurenine in supernatant
Known IC50 of a selection of compounds

Compound: O=C(CCn1ncc2cc(-c3c[nH]c4cc(F)ccc34)ccc21)N1CCOCC1 [Compound 86]
IC50 / nM: 646

Compound: CN1CCC[C@H]1C(=O)NCc1nc2ccc(-c3c[nH]c4cc(F)ccc34)cc2o1 [Compound 115]
IC50 / nM: 349

Compound: COc1nc2ccc(-c3c[nH]c4cc(F)ccc34)cc2o1 [Compound 116]
IC50 / nM: 372

Compound: Fc1ccc2c(-c3ccc4nc(CN5CCOCC5)oc4c3)c[nH]c2c1 [Compound 66]
IC50 / nM: 284

Compound: Fc1ccc2c(-c3ccc4cn[nH]c4c3)c[nH]c2c1 [Compound 1, 6-(6-fluoro-1H-indol-3-yl)-1H-indazole]
IC50 / nM: 178

Compound: O=c1[nH]c2ccc(-c3c[nH]c4cc(F)ccc34)cc2[nH]1 [Compound 65]
IC50 / nM: 335

Compound: CS(=O)(=O)N1CCN(CCc2nc3ccc(-c4c[nH]c5cc(F)ccc45)cc3o2)CC1 [Compound 120]
IC50 / nM: 443

Compound: Fc1ccc2c(-c3ccc4nn(CC5CCNCC5)cc4c3)c[nH]c2c1 [Compound 77]
IC50 / nM: 265

----------
Known pIC50 of a selection of molecules
- Target of assay: human glioblastoma A172 cells, naturally expressing hTDO2 (Homo sapiens)
- Construct: human glioblastoma A172 cells, naturally expressing hTDO2; endogenous in cells
- Assay details: Cellular assay for TDO2 activity, A172 cells
- Condition details: overnight incubation, kynurenine in supernatant
pIC50: −log10 of the molar value.

Chem smiles: CS(=O)(=O)CCc1nc2ccc(-c3c[nH]c4cc(F)ccc34)cc2o1
pIC50: 6.82

Chem smiles: CC(=O)NCc1nc2ccc(-c3c[nH]c4cc(F)ccc34)cc2o1
pIC50: 6.84

Chem smiles: NC(=O)CCn1cnc2cc(-c3c[nH]c4cc(F)ccc34)ccc21
pIC50: 5.33

Chem smiles: O=C(CCn1ncc2cc(-c3c[nH]c4cc(F)ccc34)ccc21)NCCO
pIC50: 6.69

Chem smiles: CN1CCN(CCS(=O)(=O)NCc2nc3ccc(-c4c[nH]c5cc(F)ccc45)cc3o2)CC1
pIC50: 6.46

Chem smiles: CN(C)CCNC(=O)CCn1ncc2cc(-c3c[nH]c4cc(F)ccc34)ccc21
pIC50: 6.77

Chem smiles: O=C(CCn1ncc2cc(-c3c[nH]c4cc(F)ccc34)ccc21)N1CCNCC1
pIC50: 6.67

Chem smiles: O=S(=O)(CCO)NCc1nc2ccc(-c3c[nH]c4cc(F)ccc34)cc2o1
pIC50: 6.49

Chem smiles: CS(=O)(=O)NCc1nc2ccc(-c3c[nH]c4cc(F)ccc34)cc2o1
pIC50: 6.82

----------
Known log10(IC50) of a selection of molecules
- Target of assay: human recombinant TDO2 enzyme (Homo sapiens)
- Sequence (P48775 whole entry): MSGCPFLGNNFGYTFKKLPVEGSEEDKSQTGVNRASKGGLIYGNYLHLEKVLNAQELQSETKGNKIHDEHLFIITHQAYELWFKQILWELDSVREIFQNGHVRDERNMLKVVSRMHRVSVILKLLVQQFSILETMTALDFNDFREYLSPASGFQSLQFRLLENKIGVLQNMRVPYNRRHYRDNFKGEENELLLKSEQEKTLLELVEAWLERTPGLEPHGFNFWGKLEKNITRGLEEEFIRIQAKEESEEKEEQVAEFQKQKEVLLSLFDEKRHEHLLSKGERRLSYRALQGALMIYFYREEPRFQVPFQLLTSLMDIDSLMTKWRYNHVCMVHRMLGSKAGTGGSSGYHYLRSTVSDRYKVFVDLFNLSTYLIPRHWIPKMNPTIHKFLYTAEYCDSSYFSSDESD
- Assay details: Assay for TDO2 enzymatic activity determination
- Condition details: human recombinant TDO2, L-Trp 1 mM, kynurenine absorbance at 480 nm
- Experimental: […] To convert N-formylkynurenine into kynurenine, the reaction mixture was incubated at 65° C. for 30 min. […] Kynurenine concentrations were determined by measuring the absorbance at 480 nm. […] The TDO activity was measured as described above using ten serial concentrations of the compounds of the present invention. […]
Recorded metric: log10(IC50) (log10 of the value in µM)

Chem smiles: NC(=O)Cn1ncc2cc(-c3c[nH]c4cc(F)ccc34)ccc21
log10(IC50): -0.19
--
Chem smiles: Fc1ccc2c(-c3ccc4cn[nH]c4c3)c[nH]c2c1
log10(IC50): -0.23
--
Chem smiles: NC(=O)CCn1ncc2cc(-c3c[nH]c4cc(F)ccc34)ccc21
log10(IC50): -0.15
--
Chem smiles: NC(=O)CCn1cc2ccc(-c3c[nH]c4cc(F)ccc34)cc2n1
log10(IC50): -0.03
--
Chem smiles: CC(=O)N1CCC(Cn2ncc3ccc(-c4c[nH]c5cc(F)ccc45)cc32)CC1
log10(IC50): 0.50
--
Chem smiles: Fc1ccc2c(-c3ccc4[nH]cnc4c3)c[nH]c2c1
log10(IC50): -0.73
--
Chem smiles: Cc1nc2cc(-c3c[nH]c4cc(F)ccc34)ccc2[nH]1
log10(IC50): -0.41
--
Chem smiles: CC(=O)N1CCC(Cn2cc3cc(-c4c[nH]c5cc(F)ccc45)ccc3n2)CC1
log10(IC50): 0.43
--
Chem smiles: CN1CCN(CCc2nc3ccc(-c4c[nH]c5cc(F)ccc45)cc3o2)CC1
log10(IC50): -0.04

----------
- Target of assay: human glioblastoma A172 cells, naturally expressing hTDO2 (Homo sapiens)
- Construct: human glioblastoma A172 cells, naturally expressing hTDO2; endogenous in cells
- Assay details: Cellular assay for TDO2 activity, A172 cells
- Condition details: overnight incubation, kynurenine in supernatant
Structures can show the parent of a compound that is named as a salt.
Note to self: use Criterion met only for IC50 readings below 400 nM; a reading exactly at 400 nM still gets Criterion not met.

Compound: NC(=O)Cn1cc2cc(-c3c[nH]c4cc(F)ccc34)ccc2n1
Target of assay: human glioblastoma A172 cells, naturally expressing hTDO2 (Homo sapiens)
Assigned class: Criterion met

Compound: CN1CCN(Cc2nc3ccc(-c4c[nH]c5cc(F)ccc45)cc3o2)CC1
Target of assay: human glioblastoma A172 cells, naturally expressing hTDO2 (Homo sapiens)
Assigned class: Criterion met

Compound: Fc1ccc2c(-c3ccc4nc(C5CCNCC5)oc4c3)c[nH]c2c1
Target of assay: human glioblastoma A172 cells, naturally expressing hTDO2 (Homo sapiens)
Assigned class: Criterion met

Compound: NC(=O)CCn1c(=O)oc2cc(-c3c[nH]c4cc(F)ccc34)ccc21
Target of assay: human glioblastoma A172 cells, naturally expressing hTDO2 (Homo sapiens)
Assigned class: Criterion not met

Compound: NCc1nc2ccc(-c3c[nH]c4cc(F)ccc34)cc2o1 [Compound 76, hydrochloride]
Target of assay: human glioblastoma A172 cells, naturally expressing hTDO2 (Homo sapiens)
Assigned class: Criterion not met

Compound: Fc1ccc2c(-c3ccc4sccc4c3)c[nH]c2c1
Target of assay: human glioblastoma A172 cells, naturally expressing hTDO2 (Homo sapiens)
Assigned class: Criterion not met

Compound: CS(=O)(=O)NCc1nc2cc(-c3c[nH]c4cc(F)ccc34)ccc2o1
Target of assay: human glioblastoma A172 cells, naturally expressing hTDO2 (Homo sapiens)
Assigned class: Criterion not met

Compound: O=S(=O)(CCN1CCCC1)NCc1nc2ccc(-c3c[nH]c4cc(F)ccc34)cc2o1
Target of assay: human glioblastoma A172 cells, naturally expressing hTDO2 (Homo sapiens)
Assigned class: Criterion met

Compound: CN1CCN(C(=O)CCn2ncc3cc(-c4c[nH]c5cc(F)ccc45)ccc32)CC1
Target of assay: human glioblastoma A172 cells, naturally expressing hTDO2 (Homo sapiens)
Assigned class: Criterion met

----------
- Target of assay: human glioblastoma A172 cells, naturally expressing hTDO2 (Homo sapiens, UniProt P48775)
- Construct: human glioblastoma A172 cells, naturally expressing hTDO2; endogenous in cells; host or cells: human glioblastoma A172 cells (ATCC CRL-1620)
- Assay details: Cellular assay for TDO2 activity, A172 cells
- Assay type: cell-based
- Condition details: overnight incubation, kynurenine in supernatant
pIC50: −log10 of the molar value.
Recorded metric: pIC50

Compound: Cc1nc2cc(CO)c(-c3c[nH]c4cc(F)ccc34)cc2o1 [Compound 137]
Recorded metric: pIC50
Value: 4.51
--
Compound: Fc1ccc2c(-c3ccc4ccsc4c3)c[nH]c2c1 [Compound 79]
Recorded metric: pIC50
Value: 6.10
--
Compound: NC(=O)CCn1ncc2cc(-c3c[nH]c4cc(F)ccc34)ccc21 [Compound 12]
Recorded metric: pIC50
Value: 6.29
--
Compound: CS(=O)(=O)N1CCC(c2nc3ccc(-c4c[nH]c5cc(F)ccc45)cc3o2)CC1 [Compound 96]
Recorded metric: pIC50
Value: 6.23
--
Compound: CS(=O)(=O)CCc1nc2cc(-c3c[nH]c4cc(F)ccc34)ccc2o1 [Compound 80]
Recorded metric: pIC50
Value: 6.07
--
Compound: CN1CCC(Cc2nc3ccc(-c4c[nH]c5cc(F)ccc45)cc3o2)CC1 [Compound 125]
Recorded metric: pIC50
Value: 6.83
--
Compound: NC(=O)Cn1c(=O)oc2cc(-c3c[nH]c4ccc(F)cc34)ccc21 [Compound 131]
Recorded metric: pIC50
Value: 5.62
--
Compound: OC1CCN(CCc2nc3ccc(-c4c[nH]c5cc(F)ccc45)cc3o2)CC1 [Compound 140]
Recorded metric: pIC50
Value: 6.35
--
Compound: NC(=O)CCn1cc2cc(-c3c[nH]c4cc(F)ccc34)ccc2n1 [Compound 22]
Recorded metric: pIC50
Value: 6.75
--
Compound: O=S(=O)(CCN1CCOCC1)NCc1nc2ccc(-c3c[nH]c4cc(F)ccc34)cc2o1 [Compound 107]
Recorded metric: pIC50
Value: 6.17
--
Compound: CC(=O)N1CCC(c2nc3ccc(-c4c[nH]c5cc(F)ccc45)cc3o2)CC1 [Compound 56]
Recorded metric: pIC50
Value: 6.51
--
Compound: Fc1ccc2c(-c3ccc4nc(CN5CCNCC5)oc4c3)c[nH]c2c1 [Compound 78]
Recorded metric: pIC50
Value: 6.83
--
Compound: O=c1oc2cc(-c3c[nH]c4cc(F)ccc34)ccc2n1C1CCNCC1 [Compound 136]
Recorded metric: pIC50
Value: 6.49
--
Compound: Fc1ccc2c(-c3ccc4occc4c3)c[nH]c2c1 [Compound 82, 3-(benzofuran-5-yl)-6-fluoro-1H-indole]
Recorded metric: pIC50
Value: 6.22
--
Compound: O=S1(=O)NCc2cc(-c3c[nH]c4cc(F)ccc34)ccc21 [Compound 135]
Recorded metric: pIC50
Value: 7.13
--
Compound: NC(=O)Cn1cnc2ccc(-c3c[nH]c4cc(F)ccc34)cc21 [Compound 84]
Recorded metric: pIC50
Value: 5.99
--
Compound: CS(=O)(=O)Nc1nc2ccc(-c3c[nH]c4cc(F)ccc34)cc2o1 [Compound 58]
Recorded metric: pIC50
Value: 5.42
--
Compound: Fc1ccc2c(-c3ccc4nc(CCN5CCNCC5)oc4c3)c[nH]c2c1 [Compound 110]
Recorded metric: pIC50
Value: 6.62
--
Compound: Clc1ccc2c(-c3ccc4ocnc4c3)c[nH]c2c1 [Compound 111]
Recorded metric: pIC50
Value: 4.72
--
Compound: C[C@@H]1CN[C@@H](C)CN1CCc1nc2ccc(-c3c[nH]c4cc(F)ccc34)cc2o1 (relative stereo) [Compound 141]
Recorded metric: pIC50
Value: 6.47
--
Compound: O=C1Cc2cc(-c3c[nH]c4cc(F)ccc34)ccc2N1 [Compound 97, 5-(6-fluoro-1H-indol-3-yl)indolin-2-one]
Recorded metric: pIC50
Value: 6.55
--
Compound: CN1CCN(Cc2nc3cc(-c4c[nH]c5cc(F)ccc45)ccc3o2)CC1 [Compound 62]
Recorded metric: pIC50
Value: 6.47
--
Compound: NC(=O)CCn1c(=O)oc2ccc(-c3c[nH]c4cc(F)ccc34)cc21 [Compound 71]
Recorded metric: pIC50
Value: 5.45
--
Compound: Nc1nc2ccc(-c3c[nH]c4cc(F)ccc34)cc2[nH]1 [Compound 41]
Recorded metric: pIC50
Value: 5.96
--
Compound: Nc1nc2ccc(-c3c[nH]c4cc(F)ccc34)cc2o1 [Compound 98]
Recorded metric: pIC50
Value: 6.53
--
Compound: O=S1(=O)NCc2ccc(-c3c[nH]c4cc(F)ccc34)cc21 [Compound 134]
Recorded metric: pIC50
Value: 6.11
--
Compound: CS(=O)(=O)CCc1nc2cc(-c3c[nH]c4cc(F)ccc34)ccc2[nH]1 [Compound 38]
Recorded metric: pIC50
Value: 6.29
--
Compound: NC(=O)CCn1cnc2ccc(-c3c[nH]c4cc(F)ccc34)cc21 [Compound 93]
Recorded metric: pIC50
Value: 5.94
--
Compound: O=C1NS(=O)(=O)c2ccc(-c3c[nH]c4cc(F)ccc34)cc21 [Compound 130]
Recorded metric: pIC50
Value: 7.08
--
Compound: Fc1ccc2c(-c3ccc4ocnc4c3)c[nH]c2c1 [Compound 47]
Recorded metric: pIC50
Value: 6.32
--
Compound: NS(=O)(=O)NCc1nc2ccc(-c3c[nH]c4cc(F)ccc34)cc2o1 [Compound 117]
Recorded metric: pIC50
Value: 6.56
--
Compound: NC(=O)NCc1nc2ccc(-c3c[nH]c4cc(F)ccc34)cc2o1 [Compound 102]
Recorded metric: pIC50
Value: 6.58
--
Compound: c1ccc2c(-c3ccc4cn[nH]c4c3)c[nH]c2c1 [Compound 108, 6-(1H-indol-3-yl)-1H-indazole]
Recorded metric: pIC50
Value: 6.22
--
Compound: COCCS(=O)(=O)NCc1nc2ccc(-c3c[nH]c4cc(F)ccc34)cc2o1 [Compound 99]
Recorded metric: pIC50
Value: 6.45
--
Compound: C[C@@H]1CN(CCc2nc3ccc(-c4c[nH]c5cc(F)ccc45)cc3o2)C[C@H](C)N1 [Compound 139]
Recorded metric: pIC50
Value: 6.42
